Would you mind telling me the reported hERG current change (%, negative = inhibition) at 10uM of each entry?
Target: human ether-à-go-go-related gene (hERG) potassium channel (human, UniProt Q12809);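 also: peak tail current of the secondary pulse compared with the same well before compound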
Sequence (Q12809 whole entry, looked up): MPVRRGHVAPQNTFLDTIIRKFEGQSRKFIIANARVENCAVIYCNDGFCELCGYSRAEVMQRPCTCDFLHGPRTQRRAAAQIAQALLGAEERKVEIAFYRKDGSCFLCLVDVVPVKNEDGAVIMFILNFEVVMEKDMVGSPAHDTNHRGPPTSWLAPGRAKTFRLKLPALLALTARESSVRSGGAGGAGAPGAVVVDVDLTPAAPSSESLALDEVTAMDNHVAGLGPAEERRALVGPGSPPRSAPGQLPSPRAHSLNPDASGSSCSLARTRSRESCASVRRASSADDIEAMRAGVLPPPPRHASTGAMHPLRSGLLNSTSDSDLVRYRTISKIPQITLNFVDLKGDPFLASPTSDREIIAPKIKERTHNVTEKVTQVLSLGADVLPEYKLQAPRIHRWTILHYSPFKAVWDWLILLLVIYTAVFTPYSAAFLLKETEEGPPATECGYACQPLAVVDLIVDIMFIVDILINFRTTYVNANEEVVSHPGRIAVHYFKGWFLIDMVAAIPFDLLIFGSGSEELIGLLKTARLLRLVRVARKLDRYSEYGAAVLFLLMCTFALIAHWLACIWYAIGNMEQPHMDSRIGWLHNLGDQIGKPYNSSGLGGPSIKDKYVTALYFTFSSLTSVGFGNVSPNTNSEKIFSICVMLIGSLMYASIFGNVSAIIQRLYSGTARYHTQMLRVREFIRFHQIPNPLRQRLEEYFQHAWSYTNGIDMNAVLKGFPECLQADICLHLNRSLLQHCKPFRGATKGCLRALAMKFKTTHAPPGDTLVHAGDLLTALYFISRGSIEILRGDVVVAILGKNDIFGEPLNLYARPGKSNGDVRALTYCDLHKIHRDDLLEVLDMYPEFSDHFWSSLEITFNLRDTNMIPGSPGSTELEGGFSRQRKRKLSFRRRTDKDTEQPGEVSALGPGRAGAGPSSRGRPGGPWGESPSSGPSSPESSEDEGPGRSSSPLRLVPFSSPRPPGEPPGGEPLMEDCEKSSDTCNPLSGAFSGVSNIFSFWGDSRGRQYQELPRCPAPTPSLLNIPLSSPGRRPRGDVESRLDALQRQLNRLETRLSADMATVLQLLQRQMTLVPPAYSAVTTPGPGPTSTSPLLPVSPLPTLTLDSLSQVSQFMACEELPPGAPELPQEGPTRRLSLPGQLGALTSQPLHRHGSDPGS
Test: primary screen, population patch clamp on CHO cells stably expressing hERG; higher = less effect of the substance
Out of some 310,000 compounds screened, about 14,000 (4.5%) showed an effect of 50% or more. Effects have a minus sign here. For the sample, strong results were picked, then their nearest neighbours and some compounds at random.
Hi! Could you send only the number? It should be in %, unit omitted.

Data request: Form field: reported hERG current change (%, negative = inhibition) at 10uM of O=C(N/N=C/c1cccc(Br)c1)c1ccc(Cn2cc(Br)cn2)o1
Data returned: -40.9

Data request: What measured hERG current change (%, negative = inhibition) at 10uM goes with COc1cc(/C=N/NC(=O)[C@H](Cc2c[nH]c3ccccc23)NC(=O)OCC(C)C)cc([N+](=O)[O-])c1O ?
Data returned: 10.3

Data request: Returns the measured hERG current change (%, negative = inhibition) at 10uM for the input compound. Input: CCc1nn(CC(=O)NCCC2=CCCCC2)c(=O)c2cc3cc(F)ccc3n12
Data returned: 15.7

Data request: # get_value(readout='hERG current change (%, negative = inhibition) at 10uM', item= CCOc1ccc(/C=N/NC(=O)c2ccc(Cn3cc(Br)cn3)o2)cc1 )
Data returned: -56.4

Data request: Looking for the measured hERG current change (%, negative = inhibition) at 10uM of O=C(c1ccco1)N1CCN(c2cc(N3CCOCC3)c(F)cc2[N+](=O)[O-])CC1 , can you help?
Data returned: -49.6

Data request: Which measured hERG current change (%, negative = inhibition) at 10uM value corresponds to Cc1ccc(N(CCC#N)C(=O)COC(=O)c2cc(C)oc2C)cc1 ?
Data returned: -15.3

Data request: // lookup hERG current change (%, negative = inhibition) at 10uM for Cc1ccc(C(=O)Nc2cccc(NC(=O)c3ccc(C)cc3)n2)cc1
Data returned: 2.01

Data request: May I ask what hERG current change (%, negative = inhibition) at 10uM has been recorded for O=C(N/N=C/c1cccnc1)c1ccc(Cn2cc([N+](=O)[O-])cn2)o1 ?
Data returned: -8.7

Data request: Given the compound CCOc1ccc(C(=O)OCCN(C)C)cc1.Cl , what is its reported hERG current change (%, negative = inhibition) at 10uM?
Data returned: -10.3

Data request: // hERG current change (%, negative = inhibition) at 10uM lookup, key: CCOc1ccc2nc(SC3CC(=O)N(c4ccc(C)cc4)C3=O)sc2c1 (stereo not drawn)
Data returned: -6.29

Data request: Can you look up the measured hERG current change (%, negative = inhibition) at 10uM of CCc1sc(C(=O)Nc2cc(S(=O)(=O)N3CCOCC3)ccc2OC)cc1C for me?
Data returned: 7.24

Data request: Given the compound c1ccc(C2=Nn3c(nnc3-c3cccnc3)SC2)cc1 , what is its reported hERG current change (%, negative = inhibition) at 10uM?
Data returned: -25.4

Data request: Request the reported hERG current change (%, negative = inhibition) at 10uM associated with COc1ccc(OC)c(C2=Nn3c(nnc3-c3ccncc3)SC2)c1
Data returned: -24.3

Data request: Quick one: hERG current change (%, negative = inhibition) at 10uM of O=C(N/N=C\c1ccc2c(c1)OCO2)c1ccc(Cn2cc(Br)c([N+](=O)[O-])n2)o1 ?
Data returned: -8.65

Data request: Recorded hERG current change (%, negative = inhibition) at 10uM for O=C(c1ccc([N+](=O)[O-])cc1)N1CCN(C(=O)c2ccco2)CC1 , please?
Data returned: -47.4

Data request: Tell me the measured hERG current change (%, negative = inhibition) at 10uM of CC1(C)CC(=O)c2cc(OCC(=O)NCCN3CCCc4ccccc43)ccc2O1 , please.
Data returned: -47.5

Data request: Give its hERG current change (%, negative = inhibition) at 10uM value. Item: O=C(N/N=C\c1cccc(F)c1)c1ccc(Cn2cc(Br)c([N+](=O)[O-])n2)o1
Data returned: -33.9

Data request: Data request, read-out hERG current change (%, negative = inhibition) at 10uM, for CCOc1cc(C(=O)N/N=C/c2ccoc2)cc(OCC)c1OCC
Data returned: 5.67
